- METHOD: Example 1: pharmacokinetics of Compound I, single (SD) and multiple (MD, q8h 7 days) ascending doses, 3-hour IV infusion, healthy adult subjects
- Format: in vivo, human
- ASSAY SETUP: human, plasma, intravenous; 500 mg single dose
PROPERTY NAME: AUC(0-inf) (ng·h/mL)
Give the value in ng·h/mL but do not write ng·h/mL after it.

Ask: For the molecule O=C(O)C[C@@H]1CC[C@H](NC(=O)Cc2cccs2)B(O)O1 [Compound I] , report AUC(0-inf).
Result: 35600

###

- METHOD: Example 1: pharmacokinetics of Compound I, single (SD) and multiple (MD, q8h 7 days) ascending doses, 3-hour IV infusion, healthy adult subjects
- Type: in vivo, human
- ASSAY SETUP: human, urine, intravenous, 1500 mg, 1500 mg single dose; read-out: Urinary Recovery
- Experimental: 56 healthy subjects were enrolled into one of 7 cohorts of 8 subjects each in the single ascending dose phase (250 mg, 500 mg, 750 mg, 1000 mg, 1250 mg, 1500 mg and 2000 mg). Thirty-two additional subjects were then enrolled into one of 4 cohorts in the multiple-dose phase (250 mg, 1000 mg, 1500 mg, and 2000 mg, given q8 h for 7 days). […] All infusions were administered over 3 hours. […]
PROPERTY NAME: dose excreted (%)
Give the value in % but do not write % after it.

Ask: For the compound `O=C(O)C[C@@H]1CC[C@H](NC(=O)Cc2cccs2)B(O)O1` , report dose excreted.
Result: 86.6

###

- METHOD: clinical
- ASSAY SETUP: both, human, in vivo, AM concentration at time of bronchoscopy and BAL
- Method: A total of twenty-five (n=25) male and female subjects who met the study entry criteria and completed all phases of the pharmacokinetic study were included in this pharmacokinetic analysis. […] The concentration of drug (ABXAM) in the alveolar cells (AC) was determined as follows: […] The concentration ratios of ELF and AM to the simultaneous plasma concentrations were calculated for each subject and summarized for each group at each sampling time. […]
PROPERTY NAME: concentration at 8 h (ng/mL)
Give the value in ng/mL but do not write ng/mL after it.

Ask: For the compound `O=C(O)C[C@@H]1CC[C@H](NC(=O)Cc2cccs2)B(O)O1` , report concentration at 8 h.
Result: 4400

###

- METHOD: Example 1: pharmacokinetics of Compound I, single (SD) and multiple (MD, q8h 7 days) ascending doses, 3-hour IV infusion, healthy adult subjects
- Type: in vivo, human
- ASSAY SETUP: human, urine, intravenous, 2000 mg, 2000 mg single dose; read-out: Urinary Recovery
PROPERTY NAME: dose excreted

Ask: For the compound O=C(O)C[C@@H]1CC[C@H](NC(=O)Cc2cccs2)B(O)O1 [Compound I] , report dose excreted.
Result: 105%

###

- METHOD: clinical
- ASSAY SETUP: human, in vivo, 1000 mg, Vss
PROPERTY NAME: Vd (L)
Give the value in L but do not write L after it.

Ask: For the molecule `O=C(O)C[C@@H]1CC[C@H](NC(=O)Cc2cccs2)B(O)O1` , report Vd.
Result: 21.4

###

- METHOD: Example 6: noncompartmental plasma pharmacokinetics after third dose of the Combination (2 g meropenem/2 g Compound I q8h)
- ASSAY SETUP: both, human, plasma, intravenous, Tmax, Compound I 2 g q8h, 3.25-hour BAL Sampling Group
PROPERTY NAME: Tmax
Give your result as the value with the unit written after it.

Ask: For the compound O=C(O)C[C@@H]1CC[C@H](NC(=O)Cc2cccs2)B(O)O1 [Compound I] , report Tmax.
Result: 3 h
